The measured values listed here are drawn from patent US20240270821A1.

MEASURED TARGET: hGcgR (Homo sapiens)
Sequence (P47871 26-477): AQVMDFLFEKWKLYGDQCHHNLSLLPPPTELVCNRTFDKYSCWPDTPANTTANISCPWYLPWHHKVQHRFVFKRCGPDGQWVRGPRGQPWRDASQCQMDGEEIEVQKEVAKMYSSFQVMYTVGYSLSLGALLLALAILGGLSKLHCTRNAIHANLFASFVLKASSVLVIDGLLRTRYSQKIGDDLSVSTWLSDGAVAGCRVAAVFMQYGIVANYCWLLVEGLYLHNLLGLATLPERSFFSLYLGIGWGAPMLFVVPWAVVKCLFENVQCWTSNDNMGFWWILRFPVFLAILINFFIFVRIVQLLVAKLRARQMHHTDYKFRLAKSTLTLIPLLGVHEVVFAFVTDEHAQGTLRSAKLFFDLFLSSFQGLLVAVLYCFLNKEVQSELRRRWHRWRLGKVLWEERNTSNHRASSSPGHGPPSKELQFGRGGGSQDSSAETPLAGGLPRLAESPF
MEASUREMENT DESCRIPTION: Functional cAMP activation in the presence of 0.1% casein (no HSA);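 also: intracellular cAMP rise after 30 min at 37 °C, read by HTRF against a cAMP standard curve, scaled from buffer only (0%) to maximal control ligand response (100%)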
Type: cell-based
CONDITION CONTEXT: in the presence of 0.1% casein (no HSA); geometric mean; read-out: Relative cAMP EC50, hGcgR
pEC50: −log10 of the molar value. Starred links: 1 amine or outer side, 2 acyl side, 3 side chain; linkers in the order of their positions; H or OH if unused. Non-standard residues stand in square brackets, D forms with d. Groups on a side chain read outwards from the residue. *: point of attachment. C20 diacid = O=C(O)CCCCCCCCCCCCCCCCCCC(=O)*; C18 diacid = O=C(O)CCCCCCCCCCCCCCCCC(=O)*; γGlu = O=C(O)[C@H](CCC(=O)[*:2])N[*:1]; 4Pal = N[C@@H](Cc1ccncc1)C(=O)O; αMeL = CC(C)C[C@](C)(N)C(=O)O; Orn = NCCC[C@H](N)C(=O)O; AEEA = NCCOCCOCC(=O)O; Aib = CC(C)(N)C(=O)O

>  <SUBSTANCE>
H-Y[Aib]QGTFTSDFSK[αMeL]LDKK([AEEA-γGlu-C20 diacid])AQ[Aib]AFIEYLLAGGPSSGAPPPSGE-NH2 [Example 11]

>  <MEASURED TARGET>
hGcgR (Homo sapiens)

>  <pEC50>
7.90

$$$$
>  <SUBSTANCE>
H-Y[Aib]QGTFTSDFS[Orn][αMeL]LDKK([AEEA-γGlu-C18 diacid])AQ[Aib]AFIEYLLEGGPSSGAPPPGGSE-NH2 [Example 65]

>  <MEASURED TARGET>
hGcgR (Homo sapiens)

>  <pEC50>
8.19

$$$$
>  <SUBSTANCE>
H-Y[Aib]QGTFTSDYSI[αMeL]LDKK([AEEA-AEEA-γGlu-C20 diacid])AA[Aib]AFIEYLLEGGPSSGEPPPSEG-NH2 [Example 294]

>  <MEASURED TARGET>
hGcgR (Homo sapiens)

>  <pEC50>
8.97

$$$$
>  <SUBSTANCE>
H-Y[Aib]QGTFTSDFS[Orn][αMeL]LDKK([AEEA-AEEA-γGlu-C18 diacid])AQ[Aib]AFIEYLLE[dA]GPSSGEPPPSGQ-NH2 [Example 157]

>  <MEASURED TARGET>
hGcgR (Homo sapiens)

>  <pEC50>
8.38

$$$$
>  <SUBSTANCE>
H-Y[Aib]QGTFTSDFS[Orn][αMeL]LDKK([AEEA-γGlu-C18 diacid])AQ[Aib]AFIEWLLEGGPSSGAPPPEG[4Pal]-NH2 [Example 262]

>  <MEASURED TARGET>
hGcgR (Homo sapiens)

>  <pEC50>
8.01

$$$$
>  <SUBSTANCE>
H-Y[Aib]QGTFTSDFS[Orn][αMeL]LDKK([AEEA-γGlu-C18 diacid])AQ[Aib]AFIEWLLEGGSSSGAPPPSGT-NH2 [Example 174]

>  <MEASURED TARGET>
hGcgR (Homo sapiens)

>  <pEC50>
8.37

$$$$
